Reference source for all entries: PubChem BioAssay (NCI)

System: U251 CNS
Experiment: NCI tumour cell line growth inhibition, 48 h
Consider the following compounds; for each one, report its TGI.

Exam item: Form field: reported TGI of `O=C(NCCCCCCNC(=O)OCc1ccc2c(Cl)cc(Cl)c(O)c2n1)OCc1ccc2c(Cl)cc(Cl)c(O)c2n1`
Marked response: 2.92 µM

Exam item: Form field: reported TGI of `O=C(NNC(=O)c1nsc2ccccc12)c1ccc(Cl)cc1`
Marked response: 33.7 µM

Exam item: Form field: reported TGI of `FC(F)(F)c1nc(-c2ccccc2)oc1Sc1oc(-c2ccccc2)nc1C(F)(F)F`
Marked response: > 100 µM

Exam item: Form field: reported TGI of `C[C@]12CCC(=O)C=C1CC[C@@H]1[C@@H]2[C@@H](O)C[C@@]2(C)[C@H]1CC[C@]2(O)C(=O)COC(=O)C1CCCC1`
Marked response: > 100 µM

Exam item: Form field: reported TGI of `O=c1/c(=C/c2ccc([N+](=O)[O-])o2)sc2n1[C@@H](c1ccc3c(c1)OCO3)C=C(c1cc(F)c(Cl)cc1Cl)N=2`
Marked response: 46.5 µM

Exam item: Form field: reported TGI of COc1ccc(C(c2ccc3c(c2)OCO3)N2C(=O)CCC2C(=O)O)cc1 (stereo not drawn)
Marked response: > 100 µM

Exam item: Form field: reported TGI of `CCOC(=O)c1cc(OC(=O)CC)c2c(OC)ccc(OC)c2c1`
Marked response: > 100 µM

Exam item: Form field: reported TGI of `C/C(=C\c1ccn(-c2ccc(N)cc2F)n1)[C@@H]1C[C@@H]2O[C@]2(C)CCC[C@H](C)[C@H](O)[C@@H](C)C(=O)C(C)(C)[C@@H](O)CC(=O)O1`
Marked response: > 50 µM
